Data origin, for the record: ChEMBL document CHEMBL2331488

Target: 5-hydroxytryptamine receptor 2A (Rattus norvegicus)
Sequence (P14842 whole entry): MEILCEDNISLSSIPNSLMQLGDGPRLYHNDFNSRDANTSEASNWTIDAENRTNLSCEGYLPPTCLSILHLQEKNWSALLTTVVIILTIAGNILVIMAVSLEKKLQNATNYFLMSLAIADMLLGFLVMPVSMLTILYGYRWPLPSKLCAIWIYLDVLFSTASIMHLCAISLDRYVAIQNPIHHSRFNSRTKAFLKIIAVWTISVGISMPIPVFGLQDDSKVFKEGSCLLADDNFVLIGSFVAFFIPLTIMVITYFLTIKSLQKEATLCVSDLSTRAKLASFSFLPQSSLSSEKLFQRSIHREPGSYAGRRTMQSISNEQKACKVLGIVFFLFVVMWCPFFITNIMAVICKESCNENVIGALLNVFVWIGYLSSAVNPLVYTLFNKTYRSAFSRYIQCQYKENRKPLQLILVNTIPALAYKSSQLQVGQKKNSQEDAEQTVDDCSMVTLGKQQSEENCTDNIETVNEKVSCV
observable: Ki (µM)

In [3]: df
Out[3]:
                              smiles_record  reading
0  Oc1ccc(N2CCN(Cc3cnn(-c4ccc(Cl)cc4)c3)CC2)cc1     8.22

---

Target: D(2) dopamine receptor (Rattus norvegicus, UniProt P61169)
Sequence (P61169 whole entry): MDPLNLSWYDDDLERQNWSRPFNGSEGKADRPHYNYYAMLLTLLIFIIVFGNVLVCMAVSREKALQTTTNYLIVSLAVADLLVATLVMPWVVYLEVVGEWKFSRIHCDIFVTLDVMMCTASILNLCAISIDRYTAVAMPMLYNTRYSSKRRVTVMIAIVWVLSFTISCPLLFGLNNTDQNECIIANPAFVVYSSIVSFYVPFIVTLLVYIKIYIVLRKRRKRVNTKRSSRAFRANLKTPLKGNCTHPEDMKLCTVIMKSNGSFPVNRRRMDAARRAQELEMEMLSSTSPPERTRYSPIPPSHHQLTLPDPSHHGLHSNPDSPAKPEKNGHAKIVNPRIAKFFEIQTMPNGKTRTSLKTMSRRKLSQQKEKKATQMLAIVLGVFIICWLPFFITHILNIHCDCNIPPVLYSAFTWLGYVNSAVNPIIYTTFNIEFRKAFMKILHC
Experiment: Displacement of [3H]-YM-09151-2 from D2 dopamine receptor in Wistar rat brain striatal membrane after 60 mins by liquid scintillation counting
pKi: −log10 of the molar value.
observable: pKi

>>> print(df.to_string())
                              smiles_record  observable  reading
0  Oc1ccc(N2CCN(Cc3cnn(-c4ccc(Cl)cc4)c3)CC2)cc1         pKi     6.28
1  Clc1ccc(-n2cc(CN3CCN(c4ccccc4)CC3)cn2)cc1         pKi     6.42

---

Biological target: D(4) dopamine receptor (Homo sapiens, UniProt P21917)
Sequence (P21917 whole entry): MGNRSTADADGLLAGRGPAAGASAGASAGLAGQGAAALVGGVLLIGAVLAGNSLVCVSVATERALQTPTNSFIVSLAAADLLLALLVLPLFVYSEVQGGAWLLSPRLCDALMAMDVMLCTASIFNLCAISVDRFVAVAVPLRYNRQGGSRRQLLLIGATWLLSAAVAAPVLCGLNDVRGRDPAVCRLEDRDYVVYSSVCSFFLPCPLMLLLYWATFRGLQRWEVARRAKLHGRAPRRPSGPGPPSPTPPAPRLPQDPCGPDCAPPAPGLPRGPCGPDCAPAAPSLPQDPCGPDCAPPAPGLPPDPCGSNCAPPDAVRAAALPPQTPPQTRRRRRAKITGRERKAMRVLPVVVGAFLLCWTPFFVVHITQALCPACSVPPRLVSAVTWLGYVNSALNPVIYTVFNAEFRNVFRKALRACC
Examples of molecules with documented Ki follow.
observable: Ki (nM)

>>> df
                              smiles_record  unit_name  reading
0  Clc1ccc(-n2cc(CN3CCN(c4ccccc4)CC3)cn2)cc1         nM      170
1  Oc1ccc(N2CCN(Cc3cnn(-c4ccc(Cl)cc4)c3)CC2)cc1         nM       34

---

Record type: Ki measurement. Applies to: Alpha-1B adrenergic receptor (Rattus norvegicus, UniProt P15823)
observable: Ki

>>> df
                              smiles_record  reading
0  Clc1ccc(-n2cc(CN3CCN(c4ccccc4)CC3)cn2)cc1  3000 nM
1  Oc1ccc(N2CCN(Cc3cnn(-c4ccc(Cl)cc4)c3)CC2)cc1  1150 nM

---

Molecular target: 5-hydroxytryptamine receptor 1A (Rattus norvegicus, UniProt P19327)
Sequence (P19327 whole entry): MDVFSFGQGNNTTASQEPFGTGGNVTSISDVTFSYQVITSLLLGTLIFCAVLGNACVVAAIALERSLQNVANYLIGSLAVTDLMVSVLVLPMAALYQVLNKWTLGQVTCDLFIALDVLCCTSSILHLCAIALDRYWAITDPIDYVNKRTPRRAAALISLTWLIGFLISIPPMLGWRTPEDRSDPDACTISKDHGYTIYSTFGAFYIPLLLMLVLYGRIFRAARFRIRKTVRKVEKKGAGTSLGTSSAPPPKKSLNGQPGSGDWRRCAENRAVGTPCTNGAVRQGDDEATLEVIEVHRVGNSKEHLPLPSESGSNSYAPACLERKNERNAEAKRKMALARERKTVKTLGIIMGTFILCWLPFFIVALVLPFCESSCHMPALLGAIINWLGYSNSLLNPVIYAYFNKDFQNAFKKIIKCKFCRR
pKi: −log10 of the molar value.
observable: pKi

>>> df
                              smiles_record                               test_system  observable  reading
0  Oc1ccc(N2CCN(Cc3cnn(-c4ccc(Cl)cc4)c3)CC2)cc1  5-hydroxytryptamine receptor 1A (Rattus norvegicus, UniProt P19327)         pKi     5.23
